src = ChEMBL document CHEMBL1201862

- Test system: SF-295
- ASSAY SUMMARY: NCI tumour cell line growth inhibition, 48 h
Activity calls are given as the source filed them. Rule as the data show it: active = GI50 up to about 1.1 µM and inactive = higher.
Your response should consist of one outcome taken from 1 (active), -1 (inactive)

Use the examples below as a reference point.
C1CCNCC1.CN(C)c1ccc(/C=C2/NC(=S)NC2=O)cc1; -1
CC1CCc2sc3nc(S)n(-c4ccccc4)c(=O)c3c2C1 (stereo not given); -1
CC1OC(O[C@@H]2C=C3CC[C@@H]4[C@H](CC[C@]5(C)[C@@H](c6ccc(=O)oc6)CC[C@]45O)[C@@]3(C)CC2)C(O)C(OC2OC(CO)C(O)C(O)C2O)C1O (stereo not given in full); 1

Dear all, I need the recorded test outcome for "CCOC(=O)c1c(NS(=O)(=O)c2ccc(Br)cc2)sc2c1CCCC2" , thank you.
-1

Dear all, I need the recorded test outcome for Cc1ccc(-c2nc3ccccc3c(=O)n2NC2OC(CO)C(O)C(O)C2O)cc1 (stereo not given) , thank you.
-1

Dear all, I need the recorded test outcome for O=C(O)c1ccc(NC(=O)C2C(=O)C(=O)N(c3ccc(C(=O)O)cc3)C2=O)cc1 (stereo not given) , thank you.
-1

Dear all, I need the recorded test outcome for COC(=O)C1=CC2OC1(C)C1(CC1)C2=O (stereo not given) , thank you.
-1

Dear all, I need the recorded test outcome for "C[N+]1=C(c2cccnc2/C=N/O)OCC1(C)C" , thank you.
-1

Dear all, I need the recorded test outcome for CCC(=O)Nc1ccc(NC(C#N)c2cccc(Oc3ccccc3)c2)cc1 (stereo not given) , thank you.
-1

Dear all, I need the recorded test outcome for "COC(=O)c1c(C)nc(C)c(N=O)c1-c1ccccc1C(F)(F)F" , thank you.
-1

----------
- Tested on: ACHN
- ASSAY SUMMARY: NCI tumour cell line growth inhibition, 48 h
The source made the active and inactive calls. Cut-off read from the data, not from the text of the source: active = GI50 up to about 1.1 µM and inactive = higher.
Your response should consist of one outcome taken from active, inactive

Use the examples below as a reference point.
O=C(NC1CCN(Cc2ccccc2)CC1)c1ccccc1I; inactive
COC(=O)/C(=N\NC(N)=O)C(C(=O)C(=O)Nc1ccccc1OC)c1nc2ccc([N+](=O)[O-])cc2nc1O (centres undefined); inactive
COC(=O)C1CCc2c(OC)ccc(OC)c2C1=O (centres undefined); inactive
CN(C)C[C@H]1CC[C@@H](CN(C)C)C1=O; inactive
CCN1C(NN)=NS(=O)(=O)c2ccccc21; inactive
Nc1nc(O)nc2sc3c(c12)CCCC3; inactive
O=C(O)CSc1nnc(COc2ccccc2)n1-c1ccccc1; inactive
CN(C)CCNc1ccc2ncn3c4ccccc4c(=O)c1c23; inactive

Dear all, I need the recorded test outcome for "CN(C)CCNC(=O)Cn1ccc(=O)c2cc([N+](=O)[O-])ccc21" , thank you.
inactive

Dear all, I need the recorded test outcome for "COC(CN1C(=O)c2cccc3cccc(c23)C1=O)OC" , thank you.
inactive

Dear all, I need the recorded test outcome for CC1CCc2sc3nc(S)n(-c4ccccc4)c(=O)c3c2C1 (centres undefined) , thank you.
inactive

Dear all, I need the recorded test outcome for "C[C@@H](NC(=O)Nc1cccc(C(=O)Nc2cc(C(C)(C)C)ccc2C(=O)O)n1)c1ccccc1" , thank you.
inactive

----------
Here, each record is paired with measured GI50 data.
- Test system: KM12
- ASSAY SUMMARY: NCI tumour cell line growth inhibition, 48 h
Calls of active or inactive are those of the source. Cut-off read from the data, not from the text of the source: active = GI50 up to about 1.1 µM and inactive = higher.

Example results:
Nc1ccc(S(=O)(=O)Nc2cnc3c(Cl)cccc3n2)cc1; 147 µM (inactive)
NC(=S)N/N=C1\CCCC\C1=C/c1ccccc1; 45.1 µM (inactive)
Cc1ccc([N+](=O)[O-])cc1S(=O)(=O)Nc1ccc(C(=O)/C=C/c2cccs2)cc1; 16.6 µM (inactive)
COCc1nc2c(OC)c(-c3nc4ccc(N5CCN(C)CC5)nc4[nH]3)cc(OC)c2[nH]1; 27.4 µM (inactive)
CCOC(=O)c1c(NS(=O)(=O)c2ccc(Br)cc2)sc2c1CCCC2; 6.65 µM (inactive)

// recorded GI50 for "Oc1ccc(Cl)cc1Cc1cc(Cl)cc(Cc2cc(Cl)ccc2O)c1O" : 2.64 µM (inactive)

// recorded GI50 for "COC(CN1C(=O)c2cccc3cccc(c23)C1=O)OC" : 80.4 µM (inactive)

// recorded GI50 for COc1ccc(C2c3cc(OC)c(OC)cc3C(Cc3ccc([N+](=O)[O-])cc3)C2c2ccc([N+](=O)[O-])cc2)cc1OC (stereo not given) : > 100 µM (inactive)

// recorded GI50 for "COc1cc2c(oc(=O)c3cc4ccoc4c(OC)c32)c2cccc(O)c12" : > 100 µM (inactive)

// recorded GI50 for "NC(=O)SCC(=O)Nc1ccc2cccc3c2c1CC3" : 36.7 µM (inactive)

----------
- Test system: OVCAR-4
- ASSAY SUMMARY: NCI tumour cell line growth inhibition, 48 h
Activity calls are given as the source filed them. No stated cut-off is given here; in the data, active = GI50 up to about 1.1 µM and inactive = higher.
Your response should consist of one outcome taken from active, inactive

CN(C)CCCNC(=O)c1cccc2ccccc12; inactive
CN1CCN(c2nc3ccccc3nc2C(=O)c2ccc(Cl)cc2)CC1; inactive
CCOC(=O)c1c(NS(=O)(=O)c2ccc(Br)cc2)sc2c1CCCC2; inactive
Cn1nc2c(c1N)Cc1c(nn(C)c1N)-c1ccccc1-2; inactive

Dear all, I need the recorded test outcome for "Cc1ccc([N+](=O)[O-])cc1S(=O)(=O)Nc1ccc(C(=O)/C=C/c2cccs2)cc1" , thank you.
inactive

Dear all, I need the recorded test outcome for C[C@H]1[C@H](C)N1CC(O)Cn1ccnc1[N+](=O)[O-] (stereo partly specified) , thank you.
inactive

----------
- System: OVCAR-4
- ASSAY SUMMARY: NCI tumour cell line growth inhibition, 48 h
Activity calls are given as the source filed them. No stated cut-off is given here; in the data, active = GI50 up to about 1.1 µM and inactive = higher.
READOUT KIND: GI50

Example results:
CC(=N)OC1CC2CCC1(C)C2(C)C (stereo not given); > 100 µM (inactive)
c1ccc(-n2nc3ccc4nonc4c3n2)cc1; > 100 µM (inactive)
CN1Cc2c(nc(-c3ccc(Br)cc3)c[n+]2[O-])N(C)C1; > 100 µM (inactive)
COc1ccc2nc3cc(Cl)ccc3c(Sc3ccc(NC(C)=O)cc3)c2c1; > 24.4 µM (inactive)

Item "C=CC[C@H](N=C(SC)SC)C(=O)N1C(=O)N(C)[C@@H](C)[C@H]1c1ccccc1" was tested on OVCAR-4; the reported GI50 is 29.9 µM (inactive)

Item "O=C(c1ccco1)N(Cc1cccnc1)C(=S)N(Cc1cccnc1)C(=O)c1ccco1" was tested on OVCAR-4; the reported GI50 is 20.4 µM (inactive)

Item "O=C(O)Cc1ccc(Oc2nc3ccccc3nc2-c2cccs2)cc1" was tested on OVCAR-4; the reported GI50 is 51.1 µM (inactive)

Item "CCOC(=O)/C(=C\c1c[nH]c2ccccc12)P(=O)(OCC)OCC" was tested on OVCAR-4; the reported GI50 is 23.9 µM (inactive)

Item "COC(=O)c1c(C)nc(C)c(N=O)c1-c1ccccc1C(F)(F)F" was tested on OVCAR-4; the reported GI50 is 16.1 µM (inactive)

Item COc1ccccc1C1ON=C(c2ccc([N+](=O)[O-])cc2)N1C12CC3CC(CC(C3)C1)C2 (stereo not given) was tested on OVCAR-4; the reported GI50 is > 100 µM (inactive)

Item "CC1=NN(c2nc(N)nc(/C(C#N)=C/c3ccncc3)n2)C(C)(C)C1" was tested on OVCAR-4; the reported GI50 is > 100 µM (inactive)

----------
Here, each record is paired with measured GI50 data.
- Test system: SR
- ASSAY SUMMARY: NCI tumour cell line growth inhibition, 48 h
Active and inactive are the calls of the source. Cut-off read from the data, not from the text of the source: active = GI50 up to about 1.1 µM and inactive = higher. Where a SMILES comes first, the peptide text is derived from it. [ ]: non-standard residue; d: D form. The star is where a group is joined. Phe(4-NO2) = N[CH](Cc1ccc([N+](=O)[O-])cc1)C(=O)O; Boc = CC(C)(C)OC(=O)*; OBn = c1ccc(CO*)cc1

// recorded GI50 for CC1CC(OP(=O)(OCc2ccccc2)OCc2ccccc2)[C@@H](OCc2ccccc2)C(OCc2ccccc2)C1OCc1ccccc1 (stereo partly specified) : > 100 µM (inactive)

// recorded GI50 for CC1=C(C(=O)OC2CC3CCC2(C)C3(C)C)C2Nc3ccccc3N(C)C2O1 (stereo unspecified) : 1.19 µM (inactive)

// recorded GI50 for "N#CC(C#N)=NNc1ccc2cn[nH]c2c1" : 22.6 µM (inactive)

// recorded GI50 for CC1CCCC(CC(=O)O)(CC(=O)O)C1 (stereo unspecified) : > 100 µM (inactive)

// recorded GI50 for CCOC(=O)CCC(NC(=O)c1ccc(/N=C/c2nc3cc(C(F)(F)F)ccc3nc2-c2ccccc2)cc1)C(=O)OCC (stereo unspecified) : > 50 µM (inactive)

// recorded GI50 for "CCOC(=O)c1oc2ccc([N+](=O)[O-])c3c2c1CCC3" : > 100 µM (inactive)

// recorded GI50 for CN1C=C(C(N)=O)C2CC(O)[C@@](NC(=O)CS(N)(=O)=O)(C(=O)O)C2C1 (stereo partly specified) : 2.02 µM (inactive)

// recorded GI50 for "O=C(Nc1ccn(CCO)c(=O)n1)c1ccccc1" : > 100 µM (inactive)

// recorded GI50 for "Cc1ccc(C(=O)Oc2ccc(/C=C3\CCC/C(=C\c4ccc(OC(=O)c5ccc(C)cc5)cc4)C3=O)cc2)cc1" : > 100 µM (inactive)

// recorded GI50 for "CCOC(=O)c1c(NS(=O)(=O)c2ccc(Br)cc2)sc2c1CCCC2" : 19.7 µM (inactive)

// recorded GI50 for CN1C(=O)C(O)CC1c1cccc(F)c1 (stereo unspecified) : > 100 µM (inactive)

// recorded GI50 for COC(=O)CCC(NC(=O)OC(C)(C)C)C(=O)NC(Cc1ccc([N+](=O)[O-])cc1)C(=O)NCC(=O)OCc1ccccc1 (stereo unspecified) (Boc-Glu(OMe)-[Phe(4-NO2)]-Gly-OBn; configuration not given here) : > 53.8 µM (inactive)

// recorded GI50 for O=C(O)C(CS)NCc1c2ccccc2nc2ccccc12 (stereo unspecified) : 19.5 µM (inactive)

// recorded GI50 for "CCOC(=O)c1c(-c2ccccc2)[nH]c2ccc(Cl)cc2c1=O" : 33.3 µM (inactive)

// recorded GI50 for "CC/C(=N/O)c1ccc(Br)s1" : 40.3 µM (inactive)

// recorded GI50 for "Cc1cc(OCc2nnc3n2N=C(c2cc(F)c(Cl)cc2Cl)/C(=C/c2ccc(-c4ccc(Cl)cc4)o2)S3)ccc1Cl" : 22.9 µM (inactive)

// recorded GI50 for CC1CCc2sc3nc(S)n(-c4ccccc4)c(=O)c3c2C1 (stereo unspecified) : 33.4 µM (inactive)

// recorded GI50 for Cc1cc(O)nc(NN2C(Cl)C(=O)C2c2ccccc2O)n1 (stereo unspecified) : 0.796 µM (active)
